System: Wolbachia pipientis
Experiment: Anti-Wolbachia Cell-Based Screen
Assay type: functional
Parameters: scale not given: in the data most compounds retested in dose-response had high values
Settings: 5 µM
Hit rate of the full screen: of about 48,000 compounds, about 13,000 (27%) showed an effect of 50% or more. The list shows a part of the results.
The reader will find reported Percent Effect values listed item by item below.

| compound | system_under_test | measurement_units | Percent Effect |
| --- | --- | --- | --- |
| CC(C)(C)OC(=O)N1CCC(NCc2cnn(C(C)(C)C)c2)CC1 | Wolbachia pipientis | % | -19.8 |
| Cn1nc2c(cc1=O)CN(CC(=O)Nc1cc(C(C)(C)C)no1)CC2 | Wolbachia pipientis | % | 4.087 |
| CC(C)(C)n1cc(CNC2CCN(C(=O)c3ccco3)CC2)cn1 | Wolbachia pipientis | % | -4.791 |
| CCNC(=O)[C@@H]1C[C@H](N)CN1C(=O)c1cccc(CCC(C)(C)O)c1 | Wolbachia pipientis | % | 102.7 |
| CC(C)(O)CCc1cccc(C(=O)N[C@@H](CO)C(N)=O)c1 | Wolbachia pipientis | % | 1.69 |
| Cc1ccc(CN2CCOC3(CCCN(C(=O)c4ccco4)C3)C2)o1 (configuration not stated) | Wolbachia pipientis | % | -7.626 |
| CCC(=O)N1CSCC1C(=O)Nc1ccccc1-c1cccs1 (configuration not stated) | Wolbachia pipientis | % | -5.499 |
| Cc1csc2c(=O)n(CCN3CCC(c4ccccc4)CC3)cnc12 | Wolbachia pipientis | % | 21.54 |
| O=C(NC[C@H]1OC[C@@H](NC2COC2)[C@@H]1O)c1ccccc1 | Wolbachia pipientis | % | -18.77 |
| CC(C)(C)c1ccc(=O)n(CN2CCCC(C(F)(F)F)C2)n1 (configuration not stated) | Wolbachia pipientis | % | -4.138 |
| CC(C)OC(=O)NCc1ccc(NCc2cnn(C(C)(C)C)c2)cc1 | Wolbachia pipientis | % | 104.7 |
| COCc1ccc(C(=O)N2CCN(CC3CC3)[C@@H]3CS(=O)(=O)C[C@@H]32)o1 | Wolbachia pipientis | % | -14.33 |
| CC(C)(C(=O)NCc1ccc(C#N)cc1)n1cc(Br)cn1 | Wolbachia pipientis | % | 9.719 |
| C/C(=C/c1ccccc1)CNCc1cccc(C(N)=O)c1 | Wolbachia pipientis | % | -6.417 |
| Cc1cc(NC(=O)CN2CCC(N3CCNC3=O)CC2)on1 | Wolbachia pipientis | % | 131.4 |
| CC(C)n1nnc2c(sc3nc(N4CCOCC4)c4c(c32)CCC4)c1=O | Wolbachia pipientis | % | 121.1 |
| CO[C@@H]1CCC[C@@H](NC(=O)C(C)(C)c2cccc(F)c2)[C@H]1O | Wolbachia pipientis | % | 116.6 |
| Cc1nc(C(=O)N2C[C@@H]3CN(S(C)(=O)=O)CCO[C@@H]3C2)cs1 | Wolbachia pipientis | % | -14.32 |
| CCn1ccnc1CN1CCCC(CO)(Cc2cccc(OC)c2)C1 (configuration not stated) | Wolbachia pipientis | % | 5.509 |
| CS(=O)(=O)c1ccc(NCc2ccc(F)cc2)cn1 | Wolbachia pipientis | % | -13.54 |
| Cn1nnc2c(sc3nc(N4CCOCC4)c4c(c32)CCC4)c1=O | Wolbachia pipientis | % | 117 |
| CCC(Cn1ccnc1)n1cnc2scc(C)c2c1=O (configuration not stated) | Wolbachia pipientis | % | 110.7 |
| CCC(=O)N1CCN(C(=O)Nc2ccccc2-c2cccs2)CC1 | Wolbachia pipientis | % | -6.486 |
| COCC(=O)N1CCN(C)C(=O)C(Cc2ccccc2-c2cccs2)C1 (configuration not stated) | Wolbachia pipientis | % | 162.7 |
| O=C(CN1CCC(N2CCNC2=O)CC1)NCC(F)(F)F | Wolbachia pipientis | % | -6.225 |
| Cc1ccc(C(=O)N2C[C@@H]3CN(S(C)(=O)=O)CCO[C@@H]3C2)s1 | Wolbachia pipientis | % | -10.28 |
| COCCCN1C(=O)CC[C@H]2CN(c3ccnc4ccccc34)CC[C@H]21 | Wolbachia pipientis | % | -6.412 |
| CN(Cc1ccco1)C(=O)[C@@]12CNC[C@@H]1CN(C1CCCC1)C2 | Wolbachia pipientis | % | -1.971 |
| CC(Cn1ccnc1)NC(=O)NCCNC(=O)C(C)C (configuration not stated) | Wolbachia pipientis | % | -18.32 |
| CC(C)c1ccccc1NC(=O)N1C[C@@H]2CC[C@H](C1)N(C)C2=O | Wolbachia pipientis | % | -22.21 |
| Cc1ccc(CNC2CCCc3c2cnn3Cc2ccccc2)s1.Cl (configuration not stated) | Wolbachia pipientis | % | 8.556 |
| CN(Cc1ccc(OCC(=O)N2CCOCC2)cc1)S(C)(=O)=O | Wolbachia pipientis | % | -1.865 |
| Cc1nc(CN2CCCn3c(nc(Cn4ccnc4)cc3=O)C2)cs1 | Wolbachia pipientis | % | 17.01 |
| Cc1nc2cc(=O)[nH]n2c(C)c1CNC(=O)C(C)Cc1ccccc1 (configuration not stated) | Wolbachia pipientis | % | -3.98 |
| Cn1cc(C(=O)N2C[C@@H]3CN(S(C)(=O)=O)CCO[C@@H]3C2)cn1 | Wolbachia pipientis | % | 95.46 |
| CCCn1nnc2c(sc3nc(N4CCOCC4)c4c(c32)CCC4)c1=O | Wolbachia pipientis | % | 106.2 |
| Cc1ccc(CN(CC(=O)NC2CCOCC2)c2ccc(F)cc2)o1 | Wolbachia pipientis | % | -4.166 |
